Target: acetylcholinesterase (AChE) (Homo sapiens, UniProt P22303)
Sequence (P22303 32-614, species assumed): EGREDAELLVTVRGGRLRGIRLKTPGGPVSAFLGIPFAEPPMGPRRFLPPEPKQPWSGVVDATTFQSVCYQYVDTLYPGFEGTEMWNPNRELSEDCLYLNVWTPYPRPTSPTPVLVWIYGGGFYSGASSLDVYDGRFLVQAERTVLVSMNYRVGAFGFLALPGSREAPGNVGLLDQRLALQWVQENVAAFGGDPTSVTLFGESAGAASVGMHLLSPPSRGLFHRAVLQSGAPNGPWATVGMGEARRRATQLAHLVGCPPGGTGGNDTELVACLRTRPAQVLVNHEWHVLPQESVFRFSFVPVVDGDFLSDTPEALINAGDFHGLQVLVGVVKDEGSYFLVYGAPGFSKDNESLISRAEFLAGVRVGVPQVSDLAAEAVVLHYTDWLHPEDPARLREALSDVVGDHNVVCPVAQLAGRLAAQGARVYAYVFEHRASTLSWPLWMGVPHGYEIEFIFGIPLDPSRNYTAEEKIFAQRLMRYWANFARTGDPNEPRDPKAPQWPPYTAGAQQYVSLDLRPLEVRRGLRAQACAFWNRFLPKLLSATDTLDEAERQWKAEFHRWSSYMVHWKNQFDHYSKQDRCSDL
Experiment: biochemical
Conditions: same concentration (1000 µg/mL); mean ± SE

{"Structure Smiles": "COc1ccc(Nc2n[nH]c(N=Cc3c(C)nn(-c4ccccc4)c3Cl)c2C(=O)Nc2ccccc2)cc1", "inhibition at 1000 µg/mL (%)": 24.5}
{"Structure Smiles": "Cc1ccc(NC(=O)c2c(Nc3ccccc3)n[nH]c2N=Cc2c(C)nn(-c3ccccc3)c2Cl)cc1", "inhibition at 1000 µg/mL (%)": 28.1}
{"Structure Smiles": "COc1ccc(Nc2n[nH]c(N=Cc3c(C)nn(-c4ccccc4)c3Cl)c2C(=O)Nc2ccc(C)cc2)cc1", "inhibition at 1000 µg/mL (%)": 24.6}
{"Structure Smiles": "COc1ccc(Nc2n[nH]c(/N=C/c3ccc(N4CCCCC4)cc3)c2C(=O)Nc2ccc(C)cc2)cc1", "inhibition at 1000 µg/mL (%)": 42.8}
{"Structure Smiles": "Cc1ccc(NC(=O)c2c(Nc3ccccc3)n[nH]c2N=Cc2c(C)n(C)n(-c3ccccc3)c2=O)cc1", "inhibition at 1000 µg/mL (%)": 24.1}
{"Structure Smiles": "O=C(Nc1ccc(Cl)cc1)c1c(Nc2ccccc2)n[nH]c1/N=C/c1ccc(N2CCCCC2)cc1", "inhibition at 1000 µg/mL (%)": 24.1}
{"Structure Smiles": "Cc1ccc(NC(=O)c2c(Nc3ccccc3)n[nH]c2/N=C/c2ccc(N3CCCCC3)cc2)cc1", "inhibition at 1000 µg/mL (%)": 12.3}
{"Structure Smiles": "Cc1c(C=Nc2[nH]nc(Nc3ccccc3)c2C(=O)Nc2ccc(Cl)cc2)c(=O)n(-c2ccccc2)n1C", "inhibition at 1000 µg/mL (%)": 24.1}
{"Structure Smiles": "COc1ccc(Nc2n[nH]c(/N=C/c3ccc(N4CCCCC4)cc3)c2C(=O)Nc2ccccc2)cc1", "inhibition at 1000 µg/mL (%)": 62}
{"Structure Smiles": "Cc1c(C=Nc2[nH]nc(Nc3ccccc3)c2C(=O)Nc2ccccc2)c(=O)n(-c2ccccc2)n1C", "inhibition at 1000 µg/mL (%)": 42.1}
